Provenance of the data: patent US20070276025A1

- study-system: protein kinase C γ (Homo sapiens, UniProt P05129)
- experimental-protocol: protein kinase C γ assay
- condition-context: read-out: IC50 protein kinase C γ; Table 2, 15 μM ATP
recorded-metric: IC50

CC(=O)ON=C1C(=C2C(=O)Nc3cc(Br)ccc32)Nc2ccccc21 [8a, 6-Bromoindirubin-3′-acetoxime] = > 10 µM

API: the following record is the query input.
Incoming: Could you share what IC50 was measured for CON=C1C(=C2C(=O)Nc3cc(Br)ccc32)Nc2ccccc21 [9a, 6-Bromoindirubin-3′-methoxime] , tested on protein kinase C γ (Homo sapiens, UniProt P05129)?
Outgoing: > 10 µM

###

- study-system: CDK1/cyclin B
- experimental-protocol: CDK1/cyclin B kinase assay (histone H1, 15 μM ATP)
- Type: biochemical, starfish (Marthasterias glacialis)
- condition-context: Table 4; read-out: IC50 CDK1/cycin B
recorded-metric: IC50

The examples below pair each entry with its known result.
O=C1Nc2cc(I)ccc2/C1=C1/Nc2ccccc2C1=O = 1.6 µM
CN1C(=O)C(=C2Nc3ccccc3C2=NO)c2ccc(Br)cc21 [13c, 6-Bromo-1-methylindirubin-3′-oxime] = 92 µM
O=C1Nc2cccc(Cl)c2/C1=C1/Nc2ccccc2C1=O = 10 µM
CC(=O)ON=C1C(=C2C(=O)Nc3cc(Br)ccc32)Nc2ccccc21 = 63 µM
O=C1Nc2ccccc2/C1=C1/Nc2ccc(Br)cc2C1=O [compound 20, 5′-bromo-indirubin, reference compound] = 0.51 µM
CN1C(=O)C(=C2Nc3ccccc3C2=O)c2ccc(Br)cc21 [12c, 6-Bromo-1-methylindirubin] = > 100 µM

Incoming: Could you share what IC50 was measured for O=C1Nc2ccc(I)cc2/C1=C1/Nc2ccccc2C1=O [compound 18, 5-iodo-indirubin, reference compound] , tested on CDK1/cyclin B?
Outgoing: 0.22 µM

Incoming: Could you share what IC50 was measured for O=C1Nc2cc(Cl)ccc2C1=C1Nc2ccccc2C1=NO , tested on CDK1/cyclin B?
Outgoing: 0.65 µM

###

Here, each record is paired with measured pIC50 data.
- study-system: CDK5/p25 (Homo sapiens)
- Sequence (Q00535 whole entry, species assumed): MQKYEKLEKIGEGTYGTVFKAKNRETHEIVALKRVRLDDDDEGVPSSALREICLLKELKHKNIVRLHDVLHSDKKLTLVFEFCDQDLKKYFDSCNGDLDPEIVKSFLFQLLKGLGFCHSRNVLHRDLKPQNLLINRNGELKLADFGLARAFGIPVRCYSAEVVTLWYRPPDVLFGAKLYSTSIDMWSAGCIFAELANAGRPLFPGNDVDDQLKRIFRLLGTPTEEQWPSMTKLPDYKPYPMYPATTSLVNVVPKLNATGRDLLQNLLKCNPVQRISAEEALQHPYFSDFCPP
- Sequence (Q15078 99-307 partner limits assumed, species assumed): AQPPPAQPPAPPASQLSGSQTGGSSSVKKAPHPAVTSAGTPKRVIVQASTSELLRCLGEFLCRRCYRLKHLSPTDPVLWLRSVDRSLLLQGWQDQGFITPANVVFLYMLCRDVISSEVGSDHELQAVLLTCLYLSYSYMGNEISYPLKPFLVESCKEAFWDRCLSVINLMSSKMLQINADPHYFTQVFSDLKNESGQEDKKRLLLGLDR
- experimental-protocol: CDK5/p25 kinase assay (histone H1, 15 μM ATP)
- Type: biochemical, mammalian
- condition-context: Table 5; read-out: IC50 CDK5/p25
Lab note: report pIC50 as minus log10 of the concentration in molar units, number only.

C=Cc1ccc2c(c1)NC(=O)C2=C1Nc2ccccc2C1=NOC(C)=O [8i, 6-vinylindirubin-3′-acetoxime] = 6.40
O=C1Nc2cc(Br)ccc2C1=C1Nc2ccccc2C1=O [5a, 6-Bromoindirubin] = 4.28
CON=C1C(=C2C(=O)Nc3ccccc32)Nc2ccccc21 [9b, Indirubin-3′-methoxime] = 6.40
CC(=O)ON=C1C(=C2C(=O)Nc3cc(Br)ccc32)Nc2ccccc21 [8a, 6-Bromoindirubin-3′-acetoxime] = 5.62

Incoming: Using the record for O=C1Nc2cccc(Cl)c2/C1=C1/Nc2ccccc2C1=O [compound 6, 4-Chloroindirubin] , report its pIC50.
Outgoing: 5.00

Incoming: Using the record for Cc1cc2c(cc1Br)NC(=O)C2=C1Nc2ccccc2C1=O [5f, 6-Bromo-5-methylindirubin] , report its pIC50.
Outgoing: 4.22

Incoming: Using the record for O=C1Nc2cc(Cl)c(Cl)cc2/C1=C1/Nc2ccccc2C1=O [5e, 5,6-Dichloroindirubin] , report its pIC50.
Outgoing: 4.22

Incoming: Using the record for CC(=O)ON=C1C(=C2C(=O)Nc3cc(Br)c([N+](=O)[O-])cc32)Nc2ccccc21 [8g, 6-Bromo-5-nitroindirubin-3′-acetoxime] , report its pIC50.
Outgoing: 4.51

Incoming: Using the record for CON=C1C(=C2C(=O)Nc3cc(Br)ccc32)Nc2ccccc21 [9a, 6-Bromoindirubin-3′-methoxime] , report its pIC50.
Outgoing: 5.66

Incoming: Using the record for O=C1Nc2cc(Cl)ccc2C1=C1Nc2ccccc2C1=NO [7d, 6-Chloroindirubin-3′-oxime] , report its pIC50.
Outgoing: 7.00

Incoming: Using the record for CC(=O)ON=C1C(=C2C(=O)Nc3cc(Cl)c(Cl)cc32)Nc2ccccc21 [8e, 5,6Dichloroindirubin-3′-acetoxime] , report its pIC50.
Outgoing: 7.00

Incoming: Using the record for O=C1Nc2cc(F)ccc2C1=C1Nc2ccccc2C1=NO [7b, 6-Fluoroindirubin-3′-oxime] , report its pIC50.
Outgoing: 6.82

###

- study-system: GSK-3α/β
- experimental-protocol: GSK-3α/β kinase assay (GS-1 peptide, 15 μM ATP)
- Type: biochemical, porcine
- condition-context: Table 6; read-out: GSK-3 (IC50 μM)
recorded-metric: IC50 (µM)
Enter your answer as a number in µM; do not include the unit.

The examples below pair each entry with its known result.
Nc1ccc2c(c1)/C(=C1/Nc3ccccc3C1=NO)C(=O)N2 = 0.75
Nc1cc2c(cc1Br)NC(=O)/C2=C1\Nc2ccccc2C1=NO = 0.056
Nc1cc2c(cc1Br)NC(=O)C2=C1Nc2ccccc2C1=O = 0.054

Incoming: Using the record for Nc1ccc2c(c1)C(=C1Nc3ccccc3C1=O)C(=O)N2 , report its IC50.
Outgoing: 1.5

###

- study-system: GSK-3α/β
- experimental-protocol: GSK-3α/β kinase assay (GS-1 peptide, 15 μM ATP)
- Format: biochemical, porcine
- condition-context: Table 7; GSK-3; read-out: IC50exp
pIC50: −log10 of the molar value.
Decision: pIC50 >= 7 yields label 1, all other cases yield label 0.

See these solved cases before continuing.
O=C1Nc2cc(I)ccc2/C1=C1/Nc2ccccc2C1=O [5c, 6-Iodoindirubin] = label 1
O=C1Nc2ccccc2/C1=C1/Nc2cc(Br)ccc2C1=O [12a, 6′-Bromoindirubin] = label 0
O=C1Nc2ccc(Br)cc2/C1=C1/Nc2ccc(Br)cc2C1=O [compound 21, 5,5′-dibromo-indirubin, reference compound] = label 0
CON=C1C(=C2C(=O)Nc3cc(Br)ccc32)Nc2ccccc21 [9a, 6-Bromoindirubin-3′-methoxime] = label 1
Cc1cc2c(cc1Br)NC(=O)C2=C1Nc2ccccc2C1=O [5f, 6-Bromo-5-methylindirubin] = label 1

Incoming: Is it the case that O=C1Nc2ccc([N+](=O)[O-])cc2C1=C1Nc2ccccc2C1=O [5-Nitroindirubin, reference compound] has pIC50 reaching or exceeding 7?
Outgoing: label 1

Incoming: Is it the case that O=C1Nc2cc(Cl)c(Cl)cc2/C1=C1/Nc2ccccc2C1=O [5e, 5,6-Dichloroindirubin] has pIC50 reaching or exceeding 7?
Outgoing: label 1

Incoming: Is it the case that CC(=O)ON=C1C(=C2C(=O)Nc3cc(Cl)c(Cl)cc32)Nc2ccccc21 [8e, 5,6Dichloroindirubin-3′-acetoxime] has pIC50 reaching or exceeding 7?
Outgoing: label 1

Incoming: Is it the case that O=C1Nc2ccccc2/C1=C1/Nc2ccc(Br)cc2C1=O [compound 20, 5′-bromo-indirubin, reference compound] has pIC50 reaching or exceeding 7?
Outgoing: label 0

Incoming: Is it the case that CC(=O)O/N=C1/C(=C2/C(=O)Nc3cc(Cl)ccc32)Nc2ccccc21 [8d, 6-Chloroindirubin-3′-acetoxime] has pIC50 reaching or exceeding 7?
Outgoing: label 1

Incoming: Is it the case that CC(=O)ON=C1C(=C2C(=O)Nc3cc(Br)c([N+](=O)[O-])cc32)Nc2ccccc21 [8g, 6-Bromo-5-nitroindirubin-3′-acetoxime] has pIC50 reaching or exceeding 7?
Outgoing: label 1

###

- study-system: CDK5/p35 (Homo sapiens)
- Sequence (Q15078 whole entry partner, species assumed, one chain of several): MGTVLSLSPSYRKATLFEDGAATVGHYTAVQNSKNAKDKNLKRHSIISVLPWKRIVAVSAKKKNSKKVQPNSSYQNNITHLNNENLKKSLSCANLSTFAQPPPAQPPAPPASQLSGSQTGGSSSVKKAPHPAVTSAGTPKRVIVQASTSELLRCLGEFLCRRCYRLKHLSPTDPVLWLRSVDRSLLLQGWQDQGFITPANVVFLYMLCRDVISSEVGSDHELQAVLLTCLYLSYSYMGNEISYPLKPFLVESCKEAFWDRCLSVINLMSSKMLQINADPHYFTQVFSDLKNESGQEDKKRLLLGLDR
- experimental-protocol: CDK5/p35 kinase assay
- condition-context: read-out: IC50 CDK5/p35; Table 2, 15 μM ATP
Here, each record is paired with measured IC50 data.
Enter your answer as a number in µM; do not include the unit.

Incoming: Could you share what IC50 was measured for CC(=O)ON=C1C(=C2C(=O)Nc3cc(Br)ccc32)Nc2ccccc21 , tested on CDK5/p35 (Homo sapiens)?
Outgoing: 2.4

Incoming: Could you share what IC50 was measured for CON=C1C(=C2C(=O)Nc3cc(Br)ccc32)Nc2ccccc21 , tested on CDK5/p35 (Homo sapiens)?
Outgoing: 2.2

###

- experimental-protocol: Solubility (qualitative remark)
- condition-context: relative to parent indirubins / 3′-oximes
recorded-metric: solubility (in words)

The examples below pair each entry with its known result.
O=C1Nc2ccccc2/C1=C1/Nc2ccccc2/C1=N\O = increased solubility
O=C1Nc2cc(Br)ccc2C1=C1Nc2cc(Br)ccc2C1=NO [13b, 6,6′-dibromo-indirubin-3′-oxime] = increased solubility
CON=C1C(=C2C(=O)Nc3cc(Br)ccc32)Nc2ccccc21 = less soluble
CC(=O)ON=C1C(=C2C(=O)Nc3cc(Br)ccc32)Nc2ccccc21 = less soluble

API: the following record is the query input.
Incoming: Using the record for O=C1Nc2cc(Br)ccc2/C1=C1/Nc2ccccc2/C1=N\O , report its solubility (in words).
Outgoing: increased solubility

###

- study-system: MAPKK
- experimental-protocol: MAPKK kinase assay
- condition-context: read-out: IC50 MAPKK; Table 2, 15 μM ATP
pIC50: −log10 of the molar value.
recorded-metric: pIC50

CON=C1C(=C2C(=O)Nc3cc(Br)ccc32)Nc2ccccc21 = < 5.00

Incoming: Using the record for CC(=O)ON=C1C(=C2C(=O)Nc3cc(Br)ccc32)Nc2ccccc21 , report its pIC50.
Outgoing: < 5.00
